Measured LD50, listed per entry.
PROTOCOL_TEXT: in vivo
TEST_CONTEXT: mouse, in vivo; mice, 95% confidence limits
Experimental: The LD50 was determined in mice, rats, and rabbits and the TI was calculated as LD50/HD50.

COMPOUND	LD50 / mg/kg
CC(C)c1cccc(C(C)C)c1O [Propofol]	64.4
CCN(CC)C(=O)COc1ccc(CC(=O)OCC(F)(F)F)cc1OC [Compound 5g]	363
CCOC(=O)Cc1ccc(OCC(=O)N(CC)CC)c(OCC(F)(F)F)c1 [Compound 5d]	260
CCCOC(=O)Cc1ccc(OCC(=O)N(CC)CC)c(OCC)c1 [AZD3043, reference compound]	98.4
CCN(CC)C(=O)COc1ccc(CC(=O)OC(C)C(F)(F)F)cc1OC (centres unmarked) [Compound 5i]	112
